Tested on: Hs-578T
Test: NCI tumour cell line growth inhibition, 48 h
Active and inactive are the calls of the source. Cut-off read from the data, not from the text of the source: active = GI50 up to about 1.1 µM and inactive = higher.
Give measured GI50 for each item. Keep answers brief.

# get_value(readout= GI50, system= Hs-578T) for O=C(/C=C/c1ccccc1)CCc1c(O)c2ccccc2oc1=O
> 100 µM (inactive)

Form field: GI50 recorded for Cc1csc(-c2cn(C)c3c2C(=O)C(=N)C=C3O)n1 with Hs-578T (enter value)
3.86 µM (inactive)

Request: GI50, test system Hs-578T, entry CCCCCCCCCCCC(=O)N(CCCCCCCCC)CC(O)C(O)C(OC1OC(CO)C(O)C(O)C1O)C(O)CO (stereo not drawn)
35.3 µM (inactive)

State its GI50 on Hs-578T: CCOC(C)O[C@H]1C(=O)OCC1(C)C (stereo partly drawn)
> 100 µM (inactive)

Recall the recorded GI50 for On1c(-c2ccccc2)nc2ccccc2c1=S with Hs-578T and state it.
16.5 µM (inactive)

// lookup GI50 | system=Hs-578T | key= Cc1cc(N(CCC#N)CCC#N)ccc1C(/N=N/c1ccc([N+](=O)[O-])cc1)=N\NC(=O)c1ccccc1
25.1 µM (inactive)

// lookup GI50 | system=Hs-578T | key= O=C1OC(=O)C2=C1C(c1cccs1)C=C(c1cccnc1)N2c1ccncc1 (stereo not drawn)
18.7 µM (inactive)

Short answer please: GI50, Hs-578T, entry NC(=O)N/N=C(\Cc1nc2ccc(Cl)cc2nc1O)C(=O)Nc1ccc(Cl)cc1Cl
57.4 µM (inactive)

Field: GI50 (Hs-578T). Entry: Cc1ccsc1/C=N/Nc1ccc2ccccc2n1
37.7 µM (inactive)

Requested read-out GI50, target or system Hs-578T, entry CCOC(=O)c1ccc(Nc2nc3ccccc3n3cccc23)cc1
42.9 µM (inactive)

Test system Hs-578T; read-out GI50; what value for CNC(=S)c1nnsc1N ?
> 100 µM (inactive)

Find the measured GI50: item C[n+]1c(/C=C/c2ccc(/C=N/NC(=O)c3ccc(C(=O)N/N=C/c4ccc(/C=C/c5cn6ccccc6[n+]5C)cc4)cc3)cc2)cn2ccccc21 , target or system Hs-578T.
> 100 µM (inactive)

Hs-578T / GI50 / CCOP(=O)(OCC)C(Nc1ccc(Cl)cc1)c1ccc(F)cc1 (stereo not drawn) : value?
20.8 µM (inactive)

Query GI50 on Hs-578T for COc1c2c(cc3c1OCO3)[C@]13C=C[C@H](OC)C[C@H]1N(C2)CC3O (stereo partly drawn)
> 100 µM (inactive)

GI50 of CCOC(=O)c1cnc(N(C)C)nc1SC(=N)N on Hs-578T?
> 100 µM (inactive)

For the record CCC(C)(O)c1cnc(CC(C)C)c(=O)n1O (stereo not drawn) , what value of GI50 is listed for Hs-578T?
80.7 µM (inactive)

Missing value: GI50, Hs-578T, entry O=C1CSC2(CC(/C=C/c3ccccc3)=NN2c2cccc(S(=O)(=O)O)c2)N1c1nc2ccccc2s1 (stereo not drawn) . Fill in?
55.5 µM (inactive)

Give GI50 (Hs-578T) of the following compound: Cc1ccc(/C=C2\CN(C)CC3=C2OC(N)=C(C#N)C3c2ccc(C)cc2)cc1 (stereo not drawn)
46.3 µM (inactive)

Under Hs-578T: GI50 value of O=C(O)/C=C/c1ccc(OS(=O)(=O)O)cc1 ?
> 100 µM (inactive)

Entry CN(C)CC1CC/C(=C\c2ccc(O)cc2)C1=O (stereo not drawn) , system Hs-578T: what GI50 was measured?
7.11 µM (inactive)

Lab request: please report GI50 under test system Hs-578T for C/C(=N\Nc1nc2ccccc2o1)c1ncccn1
0.984 µM (active)

Form: Entry = O=C(/C=C1\N=C(c2ccccc2)N(c2nc3c(Cl)cc(Cl)cc3s2)C1=O)/C=C/c1ccccc1 | System = Hs-578T | GI50 = ____
> 100 µM (inactive)

Requested read-out GI50, target or system Hs-578T, entry C[Si](C)(C)C#CCOC=C1CC1
> 100 µM (inactive)
